// data source = patent US20230131535A1

- target.system: hERG channel (Homo sapiens, UniProt Q12809)
- Construct: expressed in transfected cells
- Sequence (Q12809 whole entry): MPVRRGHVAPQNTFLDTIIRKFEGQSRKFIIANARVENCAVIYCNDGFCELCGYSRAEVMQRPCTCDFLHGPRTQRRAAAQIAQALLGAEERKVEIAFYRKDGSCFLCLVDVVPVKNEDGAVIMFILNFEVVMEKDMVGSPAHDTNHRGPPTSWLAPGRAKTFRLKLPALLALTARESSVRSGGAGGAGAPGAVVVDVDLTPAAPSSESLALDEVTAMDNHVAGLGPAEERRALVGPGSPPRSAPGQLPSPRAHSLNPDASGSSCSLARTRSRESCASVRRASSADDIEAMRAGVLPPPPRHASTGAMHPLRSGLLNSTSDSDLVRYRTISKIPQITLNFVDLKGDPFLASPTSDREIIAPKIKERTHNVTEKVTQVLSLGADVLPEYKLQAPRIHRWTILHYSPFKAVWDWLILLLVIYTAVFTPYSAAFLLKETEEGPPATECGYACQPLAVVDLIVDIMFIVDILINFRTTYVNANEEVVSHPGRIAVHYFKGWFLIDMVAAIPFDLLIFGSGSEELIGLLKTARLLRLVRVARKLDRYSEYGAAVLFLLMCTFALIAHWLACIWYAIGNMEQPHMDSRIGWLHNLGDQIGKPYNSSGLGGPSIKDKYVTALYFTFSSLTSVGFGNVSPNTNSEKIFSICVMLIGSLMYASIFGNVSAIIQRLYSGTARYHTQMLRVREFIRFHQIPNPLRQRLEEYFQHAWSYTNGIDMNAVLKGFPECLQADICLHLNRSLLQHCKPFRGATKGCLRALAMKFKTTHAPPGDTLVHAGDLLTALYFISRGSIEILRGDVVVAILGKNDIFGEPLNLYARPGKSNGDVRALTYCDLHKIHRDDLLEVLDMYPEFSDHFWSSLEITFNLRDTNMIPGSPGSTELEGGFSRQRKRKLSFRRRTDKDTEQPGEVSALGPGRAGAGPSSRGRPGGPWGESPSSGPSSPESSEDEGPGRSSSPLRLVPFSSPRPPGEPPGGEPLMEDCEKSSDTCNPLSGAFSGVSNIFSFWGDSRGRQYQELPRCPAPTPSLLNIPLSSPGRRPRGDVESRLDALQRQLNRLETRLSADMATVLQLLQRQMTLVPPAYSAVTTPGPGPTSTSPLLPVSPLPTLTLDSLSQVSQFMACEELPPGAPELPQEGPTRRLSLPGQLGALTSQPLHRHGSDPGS
- procedure.details: hERG electrophysiology, automated whole-cell patch clamp (Patchliner)
- Format: cell-based
- experimental.setup: Table 6; CHO-K1 cells stably expressing hERG; whole cell current, tail current protocol; read-out: hERG_IC50
readout: IC50

Here's what some known entries look like.
# molecule, result
rows = [
    ("Nc1cc(Cc2cc(Cl)c(Cl)cc2O)ccn1 [Compound 2]", "< 30 µM"),
    ("CC(=O)CC(c1ccncc1)c1c(O)ccc2ccccc12 (centres unmarked) [Compound 18]", "> 30 µM"),
    ("Oc1cc(Cl)c(Cl)cc1Cc1ccncc1 [Compound 1]", "> 30 µM"),
    ("Nc1ccc(C(O)c2c(O)ccc(Cl)c2Cl)cn1 (centres unmarked) [Compound 40]", "< 30 µM"),
    ("Nc1cc(C(O)c2c(O)ccc(Cl)c2Cl)ccn1 (single isomer, unassigned) [Compound 45]", "> 30 µM"),
    ("Nc1cc(C(O)c2c(O)ccc(Cl)c2Cl)ccn1 (centres unmarked) [Compound 36]", "> 30 µM"),
    ("Cc1cnccc1C(O)c1c(O)ccc(Cl)c1Cl (centres unmarked) [Compound 39]", "> 30 µM"),
    ("O=C(NC(c1ccncc1)c1c(O)ccc(Cl)c1Cl)C1CNC1 (centres unmarked) [Compound 42]", "> 30 µM"),
]

Q) Given O=C(N[C@H](c1ccncc1)c1c(O)ccc(Cl)c1Cl)[C@@H]1CCCN1 (single isomer, unassigned) [Compound 68] , state its recorded IC50.
A) < 30 µM

Q) And Oc1ccc(Cl)c(Cl)c1C(O)c1ccncc1 (centres unmarked) [Compound 29] ?
A) > 30 µM

Q) Now give it for Cc1cnccc1C(NC(=O)C1CNC1)c1c(O)ccc(Cl)c1Cl (centres unmarked) [Compound 9] too.
A) > 30 µM

Q) Consider next the molecule NC(c1ccc2c(c1)CNC2)c1cc(Cl)c(Cl)cc1O (centres unmarked) [Compound 21] in the same way.
A) < 30 µM

Q) Entry to check: NCc1cc(C(O)c2c(O)ccc(Cl)c2Cl)ccn1 (single isomer, unassigned) [Compound 53]
A) > 30 µM

Q) Next: CC(=O)NC(c1ccncc1)c1c(O)ccc(Cl)c1Cl (centres unmarked) [Compound 20]
A) > 30 µM

Q) Then O=C(NC(c1ccncc1)c1c(O)ccc(Cl)c1Cl)C1CNC1 (single isomer, unassigned) [Compound 50] ?
A) > 30 µM

Q) Same read-out for NC(c1ccncc1)c1c(O)ccc2ccccc12 (centres unmarked) [Compound 17] ?
A) < 30 µM

Q) Proceed to CN1CC(C(=O)NC(c2ccncc2)c2c(O)ccc(Cl)c2Cl)C1 (centres unmarked) [Compound 73]
A) > 30 µM

* * *

Readings of IC50 for the listed molecules
- target.system: Kv1.3 potassium channel (Homo sapiens, UniProt P22001)
- Construct: expressed in transfected cells
- Sequence (P22001 whole entry): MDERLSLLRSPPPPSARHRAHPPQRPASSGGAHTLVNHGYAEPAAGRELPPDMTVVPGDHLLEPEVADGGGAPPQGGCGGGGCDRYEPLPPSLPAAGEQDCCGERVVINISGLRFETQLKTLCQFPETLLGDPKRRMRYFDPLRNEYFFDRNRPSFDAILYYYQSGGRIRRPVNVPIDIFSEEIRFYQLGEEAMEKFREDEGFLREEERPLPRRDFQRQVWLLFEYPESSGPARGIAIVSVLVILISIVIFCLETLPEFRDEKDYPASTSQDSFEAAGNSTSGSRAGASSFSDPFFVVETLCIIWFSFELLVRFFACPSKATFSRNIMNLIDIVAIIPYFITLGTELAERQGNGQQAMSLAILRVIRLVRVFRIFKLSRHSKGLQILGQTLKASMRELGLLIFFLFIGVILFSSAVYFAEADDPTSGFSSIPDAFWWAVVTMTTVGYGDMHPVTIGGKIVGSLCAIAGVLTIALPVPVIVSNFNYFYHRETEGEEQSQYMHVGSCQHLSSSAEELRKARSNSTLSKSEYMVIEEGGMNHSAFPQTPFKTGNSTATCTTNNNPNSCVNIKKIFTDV
- procedure.details: Kv1.3 potassium channel blocker activity, automated whole-cell patch clamp (Patchliner)
- Type: cell-based
- experimental.setup: Table 7; CHO-K1 cells stably expressing Kv1.3; whole cell current, pulses -90 mV to +40 mV; read-out: Kv1.3_IC50

Q) Consider the molecule C[C@H](NC(=O)C1CNC1)c1c(O)ccc(Cl)c1Cl [Compound 76] and give its measured IC50.
A) < 1 µM

Q) Check Cc1cc(O)c(C(N)CC(=O)NC2CNC2)cc1Cl (centres unmarked) [Compound 97] too.
A) < 1 µM

Q) And what about the molecule C[C@H](NC(=O)C1(O)CNC1)c1c(O)ccc(Cl)c1Cl [Compound 87] ?
A) < 10 µM

Q) Same read-out for C[C@H](NC(=O)[C@H]1CCCNC1)c1c(O)ccc(Cl)c1Cl [Compound 80] ?
A) < 10 µM

Q) Also check C[C@H](NC(=O)[C@H]1CCNC1)c1c(O)ccc(Cl)c1Cl [Compound 93]
A) < 1 µM

Q) Ok, now C[C@H](NC(=O)[C@@H]1CCCNC1)c1c(O)ccc(Cl)c1Cl [Compound 81]
A) < 1 µM

Q) Try Cc1cc(O)c([C@H](C)NC(=O)C2CNC2)cc1Cl [Compound 82] next.
A) < 10 µM

Q) Here is the next molecule: C[C@H](NC(=O)C1CN(C(=O)CO)C1)c1c(O)ccc(Cl)c1Cl [Compound 88]
A) < 10 µM

Q) What do you get for C[C@@H](NC(=O)C1CNC1)c1c(O)ccc(Cl)c1Cl [Compound 77] ?
A) < 1 µM

Q) Continue with C[C@H](NC(=O)CO)c1c(O)ccc(Cl)c1Cl [Compound 83]
A) < 10 µM

Q) And for C[C@@H](NC(=O)[C@@H]1CCCNC1)c1c(O)ccc(Cl)c1Cl [Compound 79] ?
A) < 10 µM
